cytochrome P450 2C19 (Homo sapiens (Human)) measurements of IC50, listed per entry.
Sequence (P33261 whole entry): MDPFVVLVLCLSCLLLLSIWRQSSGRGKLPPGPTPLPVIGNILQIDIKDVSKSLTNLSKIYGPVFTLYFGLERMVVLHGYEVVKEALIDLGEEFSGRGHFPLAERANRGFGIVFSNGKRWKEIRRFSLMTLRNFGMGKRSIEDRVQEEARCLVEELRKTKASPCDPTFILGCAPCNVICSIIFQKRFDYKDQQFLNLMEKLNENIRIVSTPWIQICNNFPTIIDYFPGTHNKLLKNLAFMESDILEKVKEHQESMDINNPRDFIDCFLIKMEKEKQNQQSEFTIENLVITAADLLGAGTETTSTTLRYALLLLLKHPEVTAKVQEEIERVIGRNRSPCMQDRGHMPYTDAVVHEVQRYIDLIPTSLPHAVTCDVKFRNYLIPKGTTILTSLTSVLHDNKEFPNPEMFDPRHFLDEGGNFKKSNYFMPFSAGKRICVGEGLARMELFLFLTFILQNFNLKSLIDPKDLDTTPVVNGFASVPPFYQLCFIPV

compound="CN1C(=O)N(c2cccc(C(F)(F)F)c2)C2=C(C(=O)NCC2)[C@H]1c1ccc(C#N)cc1-c1cnn(C)c1 [Example 31A]" recorded_result="> 50 µM"

Turning now to a further compound:
Ask | Looking for the measured IC50 of N#Cc1ccc([C@H]2NC(=O)N(c3cccc(C(F)(F)F)c3)C3=C2C(=O)NCC3)cc1 [Example 1A] , can you help?
Reply | > 50 µM

---

- Subject Of Test: Human neutrophil elastase (Homo sapiens (Human), UniProt P08246)
- Sequence (P08246 30-247): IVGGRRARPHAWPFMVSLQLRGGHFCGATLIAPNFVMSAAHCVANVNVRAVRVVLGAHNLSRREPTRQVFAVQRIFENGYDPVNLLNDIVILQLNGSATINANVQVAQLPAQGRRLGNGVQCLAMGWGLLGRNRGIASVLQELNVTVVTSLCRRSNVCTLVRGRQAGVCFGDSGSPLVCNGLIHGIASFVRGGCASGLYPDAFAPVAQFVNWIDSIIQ
- Test Details: Human Neutrophil Elastase Assay
- Test Settings: substrate MeOSuc-Ala-Ala-Pro-Val-AMC 250 μM, pH 7.5, room temperature
Measurement Name: IC50

Known IC50 results, listed for orientation:
compound=CN1CCC2=C(C1=O)[C@@H](c1ccc(C#N)cc1)N(C)C(=O)N2c1cccc(C(F)(F)F)c1 subject_of_test="Human neutrophil elastase (Homo sapiens (Human), UniProt P08246)" measurement_name=IC50 recorded_result="1.2 nM"
compound="N#Cc1ccc(C2C3=C(CCNC3=O)N(c3cccc(C(F)(F)F)c3)C(=O)N2CC(=O)N2CCC(F)C2)cc1 (stereo not drawn)" subject_of_test="Human neutrophil elastase (Homo sapiens (Human), UniProt P08246)" measurement_name=IC50 recorded_result="< 1 nM"
compound="CNC(=O)CN1C(=O)N(c2cccc(C(F)(F)F)c2)C2=C(C(=O)NCC2)[C@H]1c1ccc(C#N)cc1 [Example 12A]" subject_of_test="Human neutrophil elastase (Homo sapiens (Human), UniProt P08246)" measurement_name=IC50 recorded_result="1.3 nM"

Each compound below has a reported value. Please supply its IC50.
1. CN1CCC2=C(C1=O)C(c1ccc(C#N)cc1)NC(=O)N2c1cccc(C(F)(F)F)c1 (racemic)
2. N#Cc1ccc(C2C3=C(CCNC3=O)N(c3cccc(C(F)(F)F)c3)C(=O)N2CC(=O)N2CCCCC2)cc1 (stereo not drawn)
3. CN(C)C(=O)CN1C(=O)N(c2cccc(C(F)(F)F)c2)C2=C(C(=O)NCC2)C1c1ccc(C#N)cc1 (stereo not drawn)

Reply |
5.8 nM
< 1 nM
1.1 nM

---

- Test Details: Metabolic stability with human hepatocytes
- Assay type: in vitro ADME
- Test Settings: human hepatocyte suspension (typically cryopreserved), 1 μM test compound, six hours, scaled with well stirred model
Measurement Name: CLhep predicted at 1 μM (mL/min/kg)
Numbers only, in mL/min/kg.

Give CLhep predicted at 1 μM for all compounds that follow.
1. CN1C(=O)N(c2cccc(C(F)(F)F)c2)C2=C(C(=O)NCC2)[C@H]1c1ccc(C#N)cc1-c1cnn(C)c1 [Example 31A]
2. CN1C(=O)N(c2cccc(C(F)(F)F)c2)C2=C(C(=O)NCC2)C1c1ccc(C#N)cc1-c1ccncn1 (stereo not shown)
3. CN1C(=O)N(c2cccc(C(F)(F)F)c2)C2=C(C(=O)NCC2)C1c1ccc(C#N)cc1-c1cccnc1 (stereo not shown)

Reply |
[3, 1, 4]

---

- Subject Of Test: Human neutrophil elastase (Homo sapiens (Human))
- Test Details: Human Neutrophil Elastase Assay
- Test Settings: substrate MeOSuc-Ala-Ala-Pro-Val-AMC 250 μM, pH 7.5, room temperature
Measurement Name: IC50 (nM)
Answers are plain numbers, in nM.

compound=N#Cc1ccc([C@H]2NC(=O)N(c3cccc(C(F)(F)F)c3)C3=C2C(=O)NCC3)cc1 recorded_result=3.1

Now look at this one.
Ask | Param item = CN1C(=O)N(c2cccc(C(F)(F)F)c2)C2=C(C(=O)NCC2)[C@@H]1c1ccc(C#N)cc1-c1cnco1 [Example 30B] ; retrieve measured IC50.
Reply | 12

// provenance: patent US9657015B2
